# Tested on: human Pan T cells
# experimental.protocol: Human Pan T cell IL-2 ELISA
# Type: cell-based
# details: Homo sapiens, T-cell, 48 h, Anti-CD3 and Anti-CD28, supernatant IL-2 ELISA, read-out: IL-2 release, EC50
pEC50: −log10 of the molar value.
reported.property: pEC50

Consider the following illustrative entries.
# input Could you share which pEC50 value was measured for CC1(C)c2cc(N3CCOCC3)ccc2Nc2c1cc(-c1cnn3cccnc13)c1c2C(=O)NC1 ?
# output 8.17

# input Requested field: pEC50. Item: CC1(C)c2cc(N3CCOCC3)ccc2Nc2c1cc(-c1cnc3nc(C4CC4)ccn13)c1c2C(=O)NC1
# output 7.55

I = COc1c(F)ccn2c(-c3cc4c(c5c3CNC5=O)Nc3ccc(N5CCOC(C(C)(C)O)C5)cc3C4(C)C)cnc12 (single isomer, unassigned)
II = CC1(C)c2cc(N3CCOCC3)ccc2Nc2c1cc(-n1cnc3c1CCCC3)c1c2C(=O)NC1
III = CC1(C)c2cc(N3CCOCC3)ccc2Nc2c1cc(-c1cnc3c(=O)n(C(F)F)ccn13)c1c2C(=O)NC1
# input // sort entries: pEC50, high to low Note for the reader: the ranking is given by listing the labels in the order requested.
# output III, I, II
